assayMetric: boiling point
Show the value, then the unit it is measured in.

**Q:** Consider the molecule shown here: Oc1cccc(C(F)(F)F)c1 What is its recorded boiling point?
**A:** 178 °C

**Q:** Consider the molecule shown here: C#CC(C)(O)CC (stereo unspecified) What is its recorded boiling point?
**A:** 120 °C

**Q:** Consider the molecule shown here: C=CCc1ccccc1C What is its recorded boiling point?
**A:** 182 °C

**Q:** Consider the molecule shown here: CC(=O)C=C(C)C What is its recorded boiling point?
**A:** 130 °C

**Q:** Consider the molecule shown here: CC(=NO)c1ccccc1 What is its recorded boiling point?
**A:** 245 °C

**Q:** Consider the molecule shown here: Nc1ccccc1CO What is its recorded boiling point?
**A:** 273 °C

**Q:** Consider the molecule shown here: CCCC(C)(CC)CC What is its recorded boiling point?
**A:** 141 °C

**Q:** Consider the molecule shown here: FC(F)(Cl)C(F)(F)Cl What is its recorded boiling point?
**A:** 3.8 °C

**Q:** Consider the molecule shown here: Cc1ccncc1C What is its recorded boiling point?
**A:** 179 °C

**Q:** Consider the molecule shown here: C[Si](C)(Cl)O[Si](C)(C)O[Si](C)(C)Cl What is its recorded boiling point?
**A:** 184 °C

**Q:** Consider the molecule shown here: Cc1c(Br)cc(Br)cc1Br What is its recorded boiling point?
**A:** 290 °C

**Q:** Consider the molecule shown here: CNCc1ccccc1 What is its recorded boiling point?
**A:** 180 °C

**Q:** Consider the molecule shown here: Cc1cccc(CCl)c1 What is its recorded boiling point?
**A:** 196 °C

**Q:** Consider the molecule shown here: CN(C)CC#N What is its recorded boiling point?
**A:** 138 °C

**Q:** Consider the molecule shown here: FC(F)(Br)C(F)(F)C(F)(F)C(F)(F)C(F)(F)C(F)(F)C(F)(F)Br What is its recorded boiling point?
**A:** 159 °C

**Q:** Consider the molecule shown here: C=CC=O What is its recorded boiling point?
**A:** 52.6 °C

**Q:** Consider the molecule shown here: O=Cc1ccc[nH]1 What is its recorded boiling point?
**A:** 218 °C

**Q:** Consider the molecule shown here: COc1ccc(C(C)=O)c(OC)c1OC What is its recorded boiling point?
**A:** 296 °C

**Q:** Consider the molecule shown here: Clc1ccc2ccccc2c1 What is its recorded boiling point?
**A:** 256 °C

**Q:** Consider the molecule shown here: CCC(=O)OC What is its recorded boiling point?
**A:** 79.8 °C

**Q:** Consider the molecule shown here: C#CCCCCCCCCCCCCCCCC What is its recorded boiling point?
**A:** 313 °C

**Q:** Consider the molecule shown here: C=C(C)OC What is its recorded boiling point?
**A:** 35 °C

**Q:** Consider the molecule shown here: CCC(C)C(CC)CC (stereo unspecified) What is its recorded boiling point?
**A:** 140 °C

**Q:** Consider the molecule shown here: CC(=O)OCC(=O)c1ccccc1 What is its recorded boiling point?
**A:** 270 °C

**Q:** Consider the molecule shown here: C1=NN(c2ccccc2)CC1 What is its recorded boiling point?
**A:** 273 °C

**Q:** Consider the molecule shown here: C=CCOC(=O)c1ccco1 What is its recorded boiling point?
**A:** 208 °C

**Q:** Consider the molecule shown here: COc1ccc(COC(C)=O)cc1 What is its recorded boiling point?
**A:** 270 °C

**Q:** Consider the molecule shown here: CC(C)CC(C)CC(C)C What is its recorded boiling point?
**A:** 148 °C

**Q:** Consider the molecule shown here: CC(=O)c1ccccc1O What is its recorded boiling point?
**A:** 218 °C

**Q:** Consider the molecule shown here: CC(=O)OC/C=C(\C)CCC=C(C)C What is its recorded boiling point?
**A:** 238 °C

**Q:** Consider the molecule shown here: CC(=O)C1=CCCCC1 What is its recorded boiling point?
**A:** 202 °C

**Q:** Consider the molecule shown here: CCCCCCCCCCCCCCCCCc1ccccc1 What is its recorded boiling point?
**A:** 397 °C

**Q:** Consider the molecule shown here: CCCCSCCCC What is its recorded boiling point?
**A:** 185 °C

**Q:** Consider the molecule shown here: CCCCCCOC(C)=O What is its recorded boiling point?
**A:** 172 °C

**Q:** Consider the molecule shown here: O=C(C(F)(F)F)C(F)(F)Cl What is its recorded boiling point?
**A:** 8 °C

**Q:** Consider the molecule shown here: CCCC(=O)OC1CCCCC1 What is its recorded boiling point?
**A:** 213 °C

**Q:** Consider the molecule shown here: Cc1ccc(N)cc1Br What is its recorded boiling point?
**A:** 256 °C

**Q:** Consider the molecule shown here: CC(O)CC(F)(F)F (stereo unspecified) What is its recorded boiling point?
**A:** 99.8 °C

**Q:** Consider the molecule shown here: Brc1ccc(Br)s1 What is its recorded boiling point?
**A:** 210 °C

**Q:** Consider the molecule shown here: CCCC(O)CO (stereo unspecified) What is its recorded boiling point?
**A:** 206 °C

**Q:** Consider the molecule shown here: CCCc1ccc(N)cc1 What is its recorded boiling point?
**A:** 225 °C

**Q:** Consider the molecule shown here: O=C(Cl)c1cccc(C(F)(F)F)c1 What is its recorded boiling point?
**A:** 187 °C

**Q:** Consider the molecule shown here: CCCC(c1ccccc1)c1ccccc1 What is its recorded boiling point?
**A:** 287 °C

**Q:** Consider the molecule shown here: Cc1cccc(-c2ccccc2)c1 What is its recorded boiling point?
**A:** 273 °C

**Q:** Consider the molecule shown here: CCOC(=O)CC(=O)OCC What is its recorded boiling point?
**A:** 200 °C

**Q:** Consider the molecule shown here: FC(F)(Cl)Cl What is its recorded boiling point?
**A:** -29.8 °C

**Q:** Consider the molecule shown here: C=CC(C)CCCC (stereo unspecified) What is its recorded boiling point?
**A:** 111 °C

**Q:** Consider the molecule shown here: CCN(C#N)CC What is its recorded boiling point?
**A:** 188 °C

**Q:** Consider the molecule shown here: CCC(C)C(O)C(C)CC (stereo unspecified) What is its recorded boiling point?
**A:** 186 °C

**Q:** Consider the molecule shown here: OC(CCl)CCl What is its recorded boiling point?
**A:** 176 °C

**Q:** Consider the molecule shown here: CCCC(C)(O)CCC What is its recorded boiling point?
**A:** 161 °C

**Q:** Consider the molecule shown here: CCCF What is its recorded boiling point?
**A:** 2.5 °C

**Q:** Consider the molecule shown here: C=C1CCCCC1 What is its recorded boiling point?
**A:** 102 °C

**Q:** Consider the molecule shown here: C=C(C)CC(C)C What is its recorded boiling point?
**A:** 81.6 °C

**Q:** Consider the molecule shown here: CC(C)c1ccc(CO)cc1 What is its recorded boiling point?
**A:** 249 °C

**Q:** Consider the molecule shown here: CC(C)(C)CCO What is its recorded boiling point?
**A:** 143 °C

**Q:** Consider the molecule shown here: CC(C)CC1CCCCC1 What is its recorded boiling point?
**A:** 171 °C

**Q:** Consider the molecule shown here: c1ccc2c(c1)oc1ccccc12 What is its recorded boiling point?
**A:** 287 °C

**Q:** Consider the molecule shown here: ClCc1ccccc1Cl What is its recorded boiling point?
**A:** 217 °C

**Q:** Consider the molecule shown here: CCSCCO What is its recorded boiling point?
**A:** 184 °C

**Q:** Consider the molecule shown here: CC(C)C1=CC(O)C(C)CC1 (stereo unspecified) What is its recorded boiling point?
**A:** 220 °C

**Q:** Consider the molecule shown here: C=CC1CCC1C=C (stereo unspecified) What is its recorded boiling point?
**A:** 112 °C

**Q:** Consider the molecule shown here: c1ccc(Cc2cccnc2)cc1 What is its recorded boiling point?
**A:** 287 °C

**Q:** Consider the molecule shown here: CC(=O)Oc1cccc(C)c1 What is its recorded boiling point?
**A:** 212 °C

**Q:** Consider the molecule shown here: FC(F)(F)C(F)(F)N(C(F)(F)C(F)(F)F)C(F)(F)C(F)(F)F What is its recorded boiling point?
**A:** 70.3 °C

**Q:** Consider the molecule shown here: CC=CCCc1ccccn1 What is its recorded boiling point?
**A:** 216 °C
